Reference source: ChEMBL document CHEMBL4477226

protocol: Oral bioavailability in rat at 30 mg/kg, administered through gastric intubation by HPLC analysis
Format: ADME, organism-based
conditions: in vivo
measured_endpoint: bioavailability

Any idea what its bioavailability is? The compound is Nc1ncnc2c1ncn2CCOCP(=O)(O)O 8 to 11%

---

Please provide measured CC50 for the entries that follow.
System: PBMC
protocol: Cytotoxicity against human PBMC assessed as reduction in cell viability by XTT assay
Format: cell-based
Numbers only, in µM.

CCCCCCCCCCCCCCCCSSCCOP(=O)(O)CO[C@H](C)Cn1cnc2c(N)ncnc21.N; 14.3

Items follow; give CC50 for each.
1. CCCCCCCCCCCCCCCCSSCCOP(=O)(CO[C@H](C)Cn1cnc2c(N)ncnc21)OCc1ccccc1 (some centres undefined)
2. CCCCCCCCCCCCSSCCOP(=O)(O)CO[C@H](C)Cn1cnc2c(N)ncnc21
3. CCCCCCCCCCCCCCCCSSCCOP(=O)(CO[C@H](C)Cn1cnc2c(N)ncnc21)OCCC (some centres undefined)
4. CCCCCCCCCCCCCCCCSSCCOP(=O)(CO[C@H](C)Cn1cnc2c(N)ncnc21)OCCCC (some centres undefined)
5. CCCCCCCCCCCCCCSSCCOP(=O)(O)CO[C@H](C)Cn1cnc2c(N)ncnc21.N

1: 41.1; 2: 25; 3: 10.6; 4: 27.9; 5: 14
